Origin of measurements: patent US8263606B2

Here, each record is paired with measured melting point data.
measure: melting point

[[record]]
compound = "COCCNC(=O)c1ccc(CN2C(=O)C3(COc4cc5c(cc43)CCO5)c3ccccc32)cc1 (stereo not shown)"
result = "182 to 183 °C"

[[record]]
compound = "CN1C(=O)C2(COc3cc4c(cc32)OCCO4)c2c(N3CCOCC3)cccc21 (stereo not shown)"
result = "246 to 249 °C"

[[record]]
compound = "CN1C(=O)C2(COc3cc4c(cc32)OCCO4)c2c(C(=O)Oc3ccccc3)cccc21 (stereo not shown)"
result = "184 to 186 °C"

[[record]]
compound = "Cc1c(F)cccc1NC(=O)c1ccccc1CN1C(=O)C2(COc3cc4c(cc32)CCO4)c2ccccc21 (stereo not shown)"
result = "> 230 °C"


###

- study_target: CYP3A4 (Homo sapiens, UniProt P08684)
- Sequence (P08684 whole entry): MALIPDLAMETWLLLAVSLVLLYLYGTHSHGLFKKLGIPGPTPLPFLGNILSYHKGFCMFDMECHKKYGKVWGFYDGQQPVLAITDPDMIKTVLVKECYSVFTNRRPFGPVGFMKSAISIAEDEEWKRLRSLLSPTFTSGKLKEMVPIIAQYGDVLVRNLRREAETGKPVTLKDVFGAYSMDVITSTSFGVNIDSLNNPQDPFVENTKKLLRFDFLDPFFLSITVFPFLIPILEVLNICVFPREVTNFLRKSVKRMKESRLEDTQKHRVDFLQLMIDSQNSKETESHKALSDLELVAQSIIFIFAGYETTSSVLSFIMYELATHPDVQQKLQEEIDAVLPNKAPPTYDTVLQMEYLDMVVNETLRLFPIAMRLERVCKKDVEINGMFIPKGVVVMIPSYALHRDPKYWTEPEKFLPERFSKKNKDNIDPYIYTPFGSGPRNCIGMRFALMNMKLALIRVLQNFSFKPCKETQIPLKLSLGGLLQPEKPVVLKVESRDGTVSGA
- test_description: Cytochrome P450 (CYP450) Inhibition Assay, CYP3A4 (Vivid fluorescence, BOMCC substrate)
- experimental_conditions: human, P450 Baculosomes (recombinant CYP3A4), probe BOMCC (Vivid substrate)
measure: inhibition at 10 µM

[[record]]
compound = "O=C1N(C[C@H]2CCCO2)c2cccc(/C=C/c3ccc(F)cc3)c2C12COc1cc3c(cc12)CCO3 (some centres unmarked)"
measure = "inhibition at 10 µM"
result = "> 50%"

[[record]]
compound = "O=C1N(Cc2ccccn2)c2c(F)cccc2C12COc1cc3c(cc12)OCCO3 (centres unmarked)"
measure = "inhibition at 10 µM"
result = "< 50%"

[[record]]
compound = "O=C1N(Cc2cc(-c3cccnc3)no2)c2ccccc2C12COc1cc3c(cc12)OCCO3 (centres unmarked)"
measure = "inhibition at 10 µM"
result = "> 50%"

[[record]]
compound = "O=C1N(Cc2ccc(N/C=N\\O)nc2)c2ccccc2C12COc1cc3c(cc12)OCCO3 (centres unmarked)"
measure = "inhibition at 10 µM"
result = "< 50%"

[[record]]
compound = "Cc1noc2cc3c(cc12)C1(CO3)C(=O)N(Cc2cnccn2)c2ccccc21 (centres unmarked)"
measure = "inhibition at 10 µM"
result = "< 50%"

[[record]]
compound = "O=C1N(C[C@@H]2CCCO2)c2ccccc2C12COc1cc3c(cc12)OCCO3 (some centres unmarked)"
measure = "inhibition at 10 µM"
result = "< 50%"

[[record]]
compound = "O=C1N(Cc2cnccn2)c2ccccc2C12COc1cc3c(cc12)CCO3 (centres unmarked)"
measure = "inhibition at 10 µM"
result = "< 50%"

[[record]]
compound = "CCOC(=O)N1C(=O)C2(COc3cc4c(cc32)OCCO4)c2ccccc21 (centres unmarked)"
measure = "inhibition at 10 µM"
result = "< 50%"

[[record]]
compound = "COc1ccc(Oc2cccc3c2C2(COc4cc5c(cc42)OCCO5)C(=O)N3C)cc1 (centres unmarked)"
measure = "inhibition at 10 µM"
result = "> 50%"

[[record]]
compound = "CN1C(=O)C2(COc3cc4c(cc32)OCCO4)c2c(C(=O)N3CCCC3)cccc21 (centres unmarked)"
measure = "inhibition at 10 µM"
result = "< 50%"

[[record]]
compound = "Nc1cccc(CN2C(=O)C3(COc4cc5c(cc43)OCCO5)c3ccccc32)n1 (centres unmarked)"
measure = "inhibition at 10 µM"
result = "> 50%"

[[record]]
compound = "O=C1N(c2ccc(F)cc2)c2ccccc2C12COc1cc3c(cc12)OCCO3 (centres unmarked)"
measure = "inhibition at 10 µM"
result = "< 50%"

[[record]]
compound = "COC(=O)c1ccc(CN2C(=O)C3(COc4cc5c(cc43)OCCO5)c3ccccc32)cc1 (centres unmarked)"
measure = "inhibition at 10 µM"
result = "< 50%"

[[record]]
compound = "CN1C(=O)[C@@]2(COc3cc4c(cc32)OCO4)c2c(-c3ccoc3)cccc21"
measure = "inhibition at 10 µM"
result = "> 50%"

[[record]]
compound = "CC1(C)COC(C)(CCN2C(=O)C3(COc4cc5c(cc43)OCCO5)c3ccccc32)OC1 (centres unmarked)"
measure = "inhibition at 10 µM"
result = "> 50%"

[[record]]
compound = "CN1C(=O)C2(COc3cc4c(cc32)OCCO4)c2c(N3CCOCC3)cccc21 (centres unmarked)"
measure = "inhibition at 10 µM"
result = "< 50%"

[[record]]
compound = "CN1C(=O)C2(COc3cc4c(cc32)OCCO4)c2c(OCc3ccccc3)cccc21 (centres unmarked)"
measure = "inhibition at 10 µM"
result = "> 50%"

